Experiment: Permeability of compound by PAMPA assay
Assay type: ADME
Settings: read-out: permeability
Papp: recorded values

Illustrative cases are given below, each with its answer.
[
  {
    "Compound": "CC1=C(C(=O)Nc2cc(C(=O)O)ccn2)C(c2ccccc2Cl)N=C(Nc2nc3cc(N)ccc3o2)N1 (stereo unspecified)",
    "Papp": "10 ×10⁻⁶ cm/s"
  },
  {
    "Compound": "CC1=C(C(=O)Nc2cc(C(=O)O)ccn2)C(c2ccc(-c3cnc(C)nc3)cc2Cl)N=C(Nc2nc3ccc(F)cc3o2)N1 (stereo unspecified)",
    "Papp": "< 1 ×10⁻⁶ cm/s"
  },
  {
    "Compound": "COc1cccc2nc(NC3=NC(c4ccccc4Cl)C(C(=O)Nc4cc(C(=O)O)ccn4)=C(C)N3)oc12 (stereo unspecified)",
    "Papp": "< 1 ×10⁻⁶ cm/s"
  },
  {
    "Compound": "COc1ccc(C2N=C(Nc3nc4ccc(F)cc4o3)NC(C)=C2C(=O)Nc2cc(C(=O)O)ccn2)c(Cl)c1 (stereo unspecified)",
    "Papp": "< 10 ×10⁻⁶ cm/s"
  },
  {
    "Compound": "COC(=O)c1ccnc(NC(=O)C2=C(C)NC(Nc3nc4ccc(F)cc4o3)=N[C@H]2c2ccccc2Cl)c1",
    "Papp": "< 21.9 ×10⁻⁶ cm/s"
  },
  {
    "Compound": "CC1=C(C(=O)Nc2cc(C(=O)O)ccn2)C(c2ccc(-c3ccc(C)nc3)cc2Cl)N=C(Nc2nc3ccc(F)cc3o2)N1 (stereo unspecified)",
    "Papp": "< 1 ×10⁻⁶ cm/s"
  },
  {
    "Compound": "CC1=C(C(=O)Nc2cccc(C(=O)O)n2)C(c2ccccc2Cl)N=C(Nc2nc3ccccc3o2)N1 (stereo unspecified)",
    "Papp": "< 1 ×10⁻⁶ cm/s"
  },
  {
    "Compound": "CC1=C(C(=O)Nc2cc(C(=O)O)ccn2)C(c2ccccc2Cl)N=C(Nc2nc3cccc(Cl)c3o2)N1 (stereo unspecified)",
    "Papp": "< 1 ×10⁻⁶ cm/s"
  },
  {
    "Compound": "CC1=C(C(=O)Nc2cc(C(=O)O)ccn2)C(c2ccccc2Cl)N=C(Nc2nc3cccc(OC(F)(F)F)c3o2)N1 (stereo unspecified)",
    "Papp": "< 10 ×10⁻⁶ cm/s"
  },
  {
    "Compound": "CC1=C(C(=O)Nc2cccc(-c3cn[nH]c3)c2)C(c2ccccc2Cl)N=C(Nc2nc3ccccc3o2)N1 (stereo unspecified)",
    "Papp": "< 25.4 ×10⁻⁶ cm/s"
  }
]

Output Papp of CC1=C(C(=O)Nc2cc(C(=O)O)ccn2)C(c2ccccc2Cl)N=C(Nc2nc3cc(Cl)ccc3o2)N1 (stereo unspecified)
< 1 ×10⁻⁶ cm/s

Output Papp of CC1=C(C(=O)Nc2cc(C(=O)O)ccn2)C(c2ccc(F)cc2Cl)N=C(Nc2nc3ccc(F)cc3o2)N1 (stereo unspecified)
< 1 ×10⁻⁶ cm/s

Output Papp of CC1=C(C(=O)Nc2cc(C(=O)O)ccn2)C(c2ccc(C)cc2Cl)N=C(Nc2nc3ncccc3o2)N1 (stereo unspecified)
< 1 ×10⁻⁶ cm/s

Output Papp of CC1=C(C(=O)Nc2cc(C(=O)O)ccn2)C(c2ccccc2Cl)N=C(Nc2nc3ccccc3o2)N1C(=O)c1ccccc1 (stereo unspecified)
< 1 ×10⁻⁶ cm/s

Output Papp of CC1=C(C(=O)Nc2nnc(-c3cccnc3)s2)C(c2ccccc2Cl)N=C(Nc2nc3cc(F)ccc3o2)N1 (stereo unspecified)
< 1.5 ×10⁻⁶ cm/s

Output Papp of CC1=C(C(=O)Nc2cc(C(=O)O)ccn2)C(c2cccc([N+](=O)[O-])c2Cl)N=C(Nc2nc3ccc(F)cc3o2)N1 (stereo unspecified)
< 1 ×10⁻⁶ cm/s
